tested_system: JAK2 (Homo sapiens, UniProt O60674)
Sequence (O60674 whole entry): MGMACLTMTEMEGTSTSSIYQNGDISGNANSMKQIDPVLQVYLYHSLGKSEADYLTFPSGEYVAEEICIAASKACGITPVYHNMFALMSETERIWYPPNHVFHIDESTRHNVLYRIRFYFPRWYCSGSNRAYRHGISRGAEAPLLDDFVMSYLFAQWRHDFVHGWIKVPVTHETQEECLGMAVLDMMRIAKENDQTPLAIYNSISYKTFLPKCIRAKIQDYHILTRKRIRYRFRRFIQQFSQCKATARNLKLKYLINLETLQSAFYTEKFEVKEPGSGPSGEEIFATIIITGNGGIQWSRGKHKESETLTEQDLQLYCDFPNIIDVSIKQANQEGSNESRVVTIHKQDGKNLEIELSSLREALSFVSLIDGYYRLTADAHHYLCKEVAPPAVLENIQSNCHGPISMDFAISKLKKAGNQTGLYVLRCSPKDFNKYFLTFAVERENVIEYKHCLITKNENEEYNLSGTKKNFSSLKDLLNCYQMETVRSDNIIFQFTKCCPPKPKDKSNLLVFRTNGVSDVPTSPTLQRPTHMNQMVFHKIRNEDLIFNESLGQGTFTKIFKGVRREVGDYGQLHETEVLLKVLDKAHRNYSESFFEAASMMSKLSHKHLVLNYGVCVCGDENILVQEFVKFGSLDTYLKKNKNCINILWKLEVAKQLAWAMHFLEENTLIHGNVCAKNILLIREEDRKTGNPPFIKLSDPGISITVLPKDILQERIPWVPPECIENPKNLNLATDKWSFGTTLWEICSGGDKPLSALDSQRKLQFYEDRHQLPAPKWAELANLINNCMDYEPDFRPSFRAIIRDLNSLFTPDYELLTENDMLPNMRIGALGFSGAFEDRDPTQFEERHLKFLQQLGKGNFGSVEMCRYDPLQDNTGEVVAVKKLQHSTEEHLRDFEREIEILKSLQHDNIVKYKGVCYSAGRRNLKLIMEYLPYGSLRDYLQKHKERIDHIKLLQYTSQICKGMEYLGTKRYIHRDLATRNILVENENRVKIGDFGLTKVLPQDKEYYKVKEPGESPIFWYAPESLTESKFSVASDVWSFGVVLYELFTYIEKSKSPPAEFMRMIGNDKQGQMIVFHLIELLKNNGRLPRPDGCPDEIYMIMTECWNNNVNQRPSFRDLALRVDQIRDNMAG
test_description: Lance Ultra Kinase Assay, recombinant JAK2
condition_details: 5 mM ATP
pIC50: −log10 of the molar value.
The label depends only on pIC50: yes (1) if it is at least 7, no (0) if it is smaller.

compound="COC[C@H](C(=O)Nc1cccc2c(-c3nc(Nc4cccc(CCC(=O)OC)n4)ncc3F)c[nH]c12)N1CCN(C)CC1 [Example 55]" label_class="no (0)"
compound="COC[C@H](C(=O)Nc1cccc2c(-c3nc(Nc4ccc(OCC(=O)OC)nc4)ncc3F)c[nH]c12)N1CCN(C)CC1 [Example 14]" label_class="no (0)"
compound="COC[C@H](C(=O)Nc1cccc2c(-c3nc(Nc4ccc5c(c4)CCOC5=O)ncc3F)c[nH]c12)N1CCN(C)CC1 [Example 42]" label_class="yes (1)"
compound="COC[C@H](C(=O)Nc1cccc2c(-c3nc(Nc4cnc(C(=O)OC)c(C)c4)ncc3F)c[nH]c12)N1CCN(C)CC1 [Example 57]" label_class="yes (1)"
compound="COC[C@H](C(=O)Nc1cccc2c(-c3nc(Nc4ccc5ocnc5c4)ncc3F)c[nH]c12)N1CCN(C)CC1 [Example 51]" label_class="no (0)"

Source listed as patent US12606544B2.
